- target.or.system: Protein farnesyltransferase (Homo sapiens, UniProt P49354+P49356)
- method.notes: Inhibition of Farnesyltransferase at 10 pM enzyme concentration
readout: IC50 (nM)
Give the number; nM is assumed, so skip it.

// IC50 lookup, molecule = N#Cc1ccc2cc1Oc1cccc(c1)-c1ccccc1N1CCC(NCc3cncn3C2)C1=O (stereo unspecified) , result: 0.06

====

- target.or.system: Protein farnesyltransferase (Homo sapiens, UniProt P49354+P49356)
- method.notes: Inhibition of HDJ2 farnesylation in PSN-1 cells over 7 hr assay in the presence of 50% human serum.
- Assay type: functional, cell-based
readout: EC50 (nM)
Give the number; nM is assumed, so skip it.

> print(dat)
                                   compound                          target.or.system  observed.result
1  N#Cc1ccc2cc1Oc1ccc3c(c1)[C@@H](CCC3)N1CC[C@H](NCc3cncn3C2)C1=O  Protein farnesyltransferase (Homo sapiens, UniProt P49354+P49356)              4.4

Assay Protein farnesyltransferase (Homo sapiens, UniProt P49354+P49356), sample N#Cc1ccc2cc1Oc1ccc3cccc(c3c1)N1CCC(NCCc3cncn3C2)C1=O (stereo in doubt; 66) , EC50 read: 7.5

Assay Protein farnesyltransferase (Homo sapiens, UniProt P49354+P49356), sample N#Cc1ccc2cc1Oc1cccc(c1)-c1ccccc1N1CCC(NCc3cncn3C2)C1=O (stereo not given) , EC50 read: 0.58

Assay Protein farnesyltransferase (Homo sapiens, UniProt P49354+P49356), sample N#Cc1ccc2cc1Oc1ccc(Br)c(c1)CN1CCC(NCc3cncn3C2)C1=O (stereo not given) , EC50 read: 1

Assay Protein farnesyltransferase (Homo sapiens, UniProt P49354+P49356), sample N#Cc1ccc2cc1Oc1ccc3cccc(c3c1)N1CC[C@H](NCc3cncn3C2)C1=O , EC50 read: 130

====

- target.or.system: Protein farnesyltransferase (Rattus norvegicus, UniProt Q02293+Q04631)
- method.notes: Inhibition of Farnesyltransferase in cells, evaluated in a radiotracer assay for farnesyltransferase inhibition (CRAFTI), in cultured H-ras-transformed Rat cells
readout: IC50 (nM)
Give the number; nM is assumed, so skip it.

> print(dat)
                                   molecule  readout  unit.annotation  observed.result
1  N#Cc1ccc2cc1Oc1cccc(c1)C(c1ccccc1)N1CCC(NCc3cncn3C2)C1=O (stereo in doubt; 26A)     IC50               nM              230
2  N#Cc1ccc2cc1Oc1ccc3cccc(c3c1)N1CCN(CC1=O)Cc1cncn1C2     IC50               nM             0.29
3  N#Cc1ccc2cc1Oc1ccc3cccc(c3c1)N1CCC(NCCc3cncn3C2)C1=O (stereo in doubt; 67)     IC50               nM             0.44

Now consider the entry below.
// IC50 lookup, molecule = CC1c2ccc(C#N)c(c2)Oc2cccc(c2)CN2CCC(NCc3cncn31)C2=O (single isomer, unassigned; diastereomer B) , result: 0.87

====

- method.notes: Pharmacokinetic data at 0.5 mg/kg dose given to dogs intravenously.
- Format: ADME, organism-based, Canis lupus familiaris
- Parameters: dose 0.5 mg/kg, route intravenous
- test.parameters: dog, in vivo, iv, read-out: Vdss
readout: Vd (L/kg)
Give the number; L/kg is assumed, so skip it.

// Vd lookup, compound = N#Cc1ccc2cc1Oc1ccc3c(c1)[C@@H](CC3)N1CC[C@@H](NCc3cncn3C2)C1=O , result: 0.27
